Tested on: K562
Assay Name: NCI tumour cell line growth inhibition, 48 h
Active and inactive are the calls of the source. Cut-off read from the data, not from the text of the source: active = GI50 up to about 1.1 µM and inactive = higher.
API: response.call in active, inactive

Worked examples follow.
# Compound, Class Assignment
rows = [
    ("COC(=O)C(=O)C(C(=O)OC)C(=O)C(=O)Nc1c(C)cccc1C (stereo not given)", "inactive"),
    ("O=P1(c2ccccc2)C(c2ccccc2)CCC1c1ccccc1 (stereo not given)", "inactive"),
    ("CCOC(=O)C1=NN(c2ccc(Cl)cc2)C2=CC(C)=NN(C)C(=S)N21", "inactive"),
    ("C=CCn1c(-c2ccc(Cl)cc2Cl)cs/c1=N\\c1c(C)n(C)n(-c2ccccc2)c1=O", "inactive"),
    ("O=C1C=C/C(=C/[C@H]2SSC=C[C@]23C=CC(=O)C3)C1", "inactive"),
]

Outcome? O=C(Nc1c(C(F)(F)F)cc(-c2ccccc2)[nH]c1=O)N1CCOCC1
inactive

Query: recorded result category for CC(=O)OCC1OC(Oc2cc(C)c(O)cc2C/C=C(\C)CC/C=C(\C)CC(=O)CC(C)C)C(O)C(OC(C)=O)C1OC(C)=O (stereo not given) in this test
inactive

Call for entry CC(=C(c1ccccc1)c1ccccc1)N1C(=O)CC(=O)N1C :
inactive

Write down the call the test reported for this compound. Item: CC(C)=C[C@@H]1C[C@H](n2cc(C)c(=O)[nH]c2=O)ON1CCO
inactive

Outcome? COc1ccc(S(=O)(=O)N(C)CC(=O)O)cc1
inactive

What did this assay record as the result for NCCCCC(=O)c1cccnc1 ?
inactive

Any idea what this test logged for CN(C)CCCNC(=O)CCNC(=O)c1cc(NC(=O)c2cc(NC(=O)c3cc(NC(=O)CCCNC(=O)c4cc(NC(=O)c5cc(NC(=O)c6nccn6C)cn5C)cn4C)cn3C)cn2C)cn1C ?
inactive

Outcome logged for C=CCN(c1cc(OC)c2[nH]cc(C)c2c1[N+](=O)[O-])S(C)(=O)=O in this assay:
inactive

Short answer needed: outcome of this test for COC(=O)C(C(=O)C(=O)NC1=C(Cl)C(=O)c2ccccc2C1=O)c1csc(-n2nc(-c3ccccc3)cc2-c2ccccc2)n1 (stereo not given) ?
inactive

For Nc1nc(N)c2nn(-c3ccc(C(=O)O)cc3)nc2n1 , what call appears in the results of this test?
inactive

// outcome(item) with item = CN(C)CCNC(=O)c1cc(Cl)cc2cc3ccccc3nc12
active

In this assay, the call recorded for CN1C(=O)C(=CNc2ccccc2[N+](=O)[O-])C(=O)N(C)C1=O was what?
inactive

# lookup: test call for Nc1cc2ncnn2c(SCC(=O)N/N=C/C(Br)=C\c2ccccc2)n1
inactive

# fetch the recorded call for COc1cccc(N2C(=O)CSC2c2cccc(Oc3ccccc3)c2)c1 (stereo not given) here
inactive

State the result this test recorded for CN(C)c1nc(N(C)C)nc(N(C)C23CC4CC(CC(C4)C2)C3)n1 .
inactive
